- Tested on: MCF7
- PROTOCOL: Cytotoxicity against human MCF7 cells by MTT assay
- Type: functional, cell-based
ASSAY READOUT: pIC50
To interpret pIC50, take it as minus log10 of a concentration measured in moles per litre.

[[record]]
compound = "CN1c2ccccc2C2(C)CCN(C(=O)Cn3c[n+](Cc4ccc(Br)cc4)c4ccccc43)C12 (stereo not drawn)"
obs_value = 5.05

[[record]]
compound = "Cc1cc2c(cc1C)[n+](Cc1ccc(Br)cc1)cn2CC(=O)N1CCC2(C)c3ccccc3N(Cc3ccccc3)C12 (stereo not drawn)"
obs_value = 5.76

[[record]]
compound = "CC12CCN(C(=O)Cn3c[n+](CC(=O)c4ccccc4)c4ccccc43)C1N(Cc1ccccc1)c1ccccc12 (stereo not drawn)"
obs_value = 5.09

[[record]]
compound = "CC12CCN(C(=O)Cn3c[n+](Cc4ccc(Br)cc4)c4ccccc43)C1N(Cc1ccccc1)c1ccccc12 (stereo not drawn)"
obs_value = 5.41


Continue with the next compound.
Summary for this compound, COc1ccc(C(=O)C[n+]2c(C)n(CC(=O)N3CCC4(C)c5ccccc5N(Cc5ccccc5)C34)c3ccccc32)cc1 (stereo not drawn) : pIC50 is 5.16

====

- Tested on: MCF7
- PROTOCOL: Cytotoxicity against human MCF7 cells by MTT assay
- Assay type: functional, cell-based
ASSAY READOUT: IC50 (µM)
Dear colleague, please return just the value in µM, with no unit written.

Reference set, count: 3
[[record]]
molecule = "COc1ccc(C(=O)C[n+]2cn(CC(=O)N3CCC4(C)c5ccccc5N(Cc5ccccc5)C34)c3ccccc32)cc1 (stereo not drawn)"
study_target = "MCF7"
assay_readout = "IC50"
obs_value = 7.83

[[record]]
molecule = "Cc1ccc(C[n+]2ccn(CC(=O)N3CCC4(C)c5ccccc5N(Cc5ccccc5)C34)c2C)cc1 (stereo not drawn)"
study_target = "MCF7"
assay_readout = "IC50"
obs_value = 7.26

[[record]]
molecule = "Cc1n(CC(=O)N2CCC3(C)c4ccccc4N(Cc4ccccc4)C23)c2ccccc2[n+]1Cc1ccccc1Br (stereo not drawn)"
study_target = "MCF7"
assay_readout = "IC50"
obs_value = 2.5


Please turn your attention to the following entry.
IC50 of Cc1cc2c(cc1C)[n+](Cc1ccc3ccccc3c1)cn2CC(=O)N1CCC2(C)c3ccccc3N(Cc3ccccc3)C12 (stereo not drawn) , assay on MCF7, is 1.68

====

pIC50 values for the molecules below.
- PROTOCOL: Cytotoxicity against human SMMC7721 cells by MTT assay
- Type: functional, cell-based
- CONDITION: SMMC-7721
pIC50: −log10 of the molar value.

Some solved cases for reference:
[[record]]
molecule = "CN1c2ccccc2C2(C)CCN(C(=O)Cn3c[n+](Cc4ccc5ccccc5c4)c4ccccc43)C12 (centres undefined)"
obs_value = 5.13

[[record]]
molecule = "COc1ccc(C(=O)C[n+]2ccn(CC(=O)N3CCC4(C)c5ccccc5N(C)C34)c2C)cc1 (centres undefined)"
obs_value = "< 4.70"


Query CN1c2ccccc2C2(C)CCN(C(=O)Cn3c[n+](CC(=O)c4ccccc4)c4ccccc43)C12 (centres undefined) yields pIC50 of < 4.70

The molecule listed as Cc1n(CC(=O)N2CCC3(C)c4ccccc4N(C)C23)cc[n+]1CC(=O)c1ccc2ccccc2c1 (centres undefined) has a reported pIC50 of < 4.70

====

- System: SW480
- PROTOCOL: Cytotoxicity against human SW480 cells by MTT assay
- Assay type: functional, cell-based
IC50 by entry:
Your answer is read as µM, so omit the unit and give the number.

Illustrative cases are given below, each with its answer.
[[record]]
compound = "CC12CCN(C(=O)Cn3c[n+](CC(=O)c4ccccc4)c4ccccc43)C1N(Cc1ccccc1)c1ccccc12 (configuration not stated)"
study_target = "SW480"
assay_readout = "IC50"
obs_value = 8.43

[[record]]
compound = "Cc1cc2c(cc1C)[n+](Cc1ccc(Br)cc1)cn2CC(=O)N1CCC2(C)c3ccccc3N(C)C12 (configuration not stated)"
study_target = "SW480"
assay_readout = "IC50"
obs_value = 6.9

[[record]]
compound = "CN1c2ccccc2C2(C)CCN(C(=O)Cn3c[n+](Cc4ccc5ccccc5c4)c4ccccc43)C12 (configuration not stated)"
study_target = "SW480"
assay_readout = "IC50"
obs_value = 7.95

[[record]]
compound = "Cc1cc2c(cc1C)[n+](Cc1ccccc1Br)cn2CC(=O)N1CCC2(C)c3ccccc3N(Cc3ccccc3)C12.[Br-] (configuration not stated)"
study_target = "SW480"
assay_readout = "IC50"
obs_value = 1.44

[[record]]
compound = "Cc1ccc(C[n+]2ccn(CC(=O)N3CCC4(C)c5ccccc5N(Cc5ccccc5)C34)c2C)cc1 (configuration not stated)"
study_target = "SW480"
assay_readout = "IC50"
obs_value = 9.71

[[record]]
compound = "Cc1n(CC(=O)N2CCC3(C)c4ccccc4N(Cc4ccccc4)C23)c2ccccc2[n+]1Cc1ccccc1Br (configuration not stated)"
study_target = "SW480"
assay_readout = "IC50"
obs_value = 4.62

[[record]]
compound = "Cc1ccc(C[n+]2c(C)n(CC(=O)N3CCC4(C)c5ccccc5N(Cc5ccccc5)C34)c3ccccc32)cc1 (configuration not stated)"
study_target = "SW480"
assay_readout = "IC50"
obs_value = 1.62

[[record]]
compound = "COc1ccc(C(=O)C[n+]2cn(CC(=O)N3CCC4(C)c5ccccc5N(Cc5ccccc5)C34)c3cc(C)c(C)cc32)cc1 (configuration not stated)"
study_target = "SW480"
assay_readout = "IC50"
obs_value = 1.5


Below: the item to evaluate.
Briefly, IC50 measured for Cc1n(CC(=O)N2CCC3(C)c4ccccc4N(Cc4ccccc4)C23)c2ccccc2[n+]1CC(=O)c1ccc(Br)cc1 (configuration not stated) : 8.86

====

- Test system: MCF7
- PROTOCOL: Cytotoxicity against human MCF7 cells by MTT assay
- Type: functional, cell-based
ASSAY READOUT: pIC50
In simple prose, pIC50 is minus the logarithm base ten of a concentration in moles per litre.

Example cases with answers are listed next.
[[record]]
compound = "CN1c2ccccc2C2(C)CCN(C(=O)Cn3c[n+](CC(=O)c4ccc5ccccc5c4)c4ccccc43)C12 (configuration not stated)"
study_target = "MCF7"
assay_readout = "pIC50"
obs_value = 4.96

[[record]]
compound = "Cc1ccc(C[n+]2cn(CC(=O)N3CCC4(C)c5ccccc5N(Cc5ccccc5)C34)c3cc(C)c(C)cc32)cc1 (configuration not stated)"
study_target = "MCF7"
assay_readout = "pIC50"
obs_value = 5.73

[[record]]
compound = "Cc1cc2c(cc1C)[n+](CC(=O)c1ccccc1)cn2CC(=O)N1CCC2(C)c3ccccc3N(C)C12 (configuration not stated)"
study_target = "MCF7"
assay_readout = "pIC50"
obs_value = 4.87

[[record]]
compound = "Cc1cc2c(cc1C)[n+](CC(=O)c1ccc(Br)cc1)cn2CC(=O)N1CCC2(C)c3ccccc3N(C)C12 (configuration not stated)"
study_target = "MCF7"
assay_readout = "pIC50"
obs_value = 5.08

[[record]]
compound = "Cc1n(CC(=O)N2CCC3(C)c4ccccc4N(Cc4ccccc4)C23)c2ccccc2[n+]1Cc1ccc2ccccc2c1.[Br-] (configuration not stated)"
study_target = "MCF7"
assay_readout = "pIC50"
obs_value = 5.84


Lab note: measured pIC50 of Cc1ccc(C[n+]2cn(CC(=O)N3CCC4(C)c5ccccc5N(C)C34)c3ccccc32)cc1 (configuration not stated) was 5.02

Lab note: Cc1cc2c(cc1C)[n+](CC(=O)c1ccccc1)cn2CC(=O)N1CCC2(C)c3ccccc3N(Cc3ccccc3)C12 (configuration not stated) gave pIC50 of 5.45

# pIC50 of Cc1cc2c(cc1C)[n+](Cc1ccccc1Br)cn2CC(=O)N1CCC2(C)c3ccccc3N(Cc3ccccc3)C12.[Br-] (configuration not stated) = 5.75

====

- PROTOCOL: Cytotoxicity against human SMMC7721 cells by MTT assay
- Assay type: functional, cell-based
- CONDITION: SMMC-7721
ASSAY READOUT: IC50 (µM)
Quick reminder: number only, in µM, skip the unit.

Below are worked cases with known answers.
[[record]]
compound = "Cc1cc2c(cc1C)[n+](CC(=O)c1ccccc1)cn2CC(=O)N1CCC2(C)c3ccccc3N(Cc3ccccc3)C12 (stereo not drawn)"
assay_readout = "IC50"
unit_descriptor = "µM"
obs_value = 5.78

[[record]]
compound = "Cc1cc2c(cc1C)[n+](Cc1ccccc1Br)cn2CC(=O)N1CCC2(C)c3ccccc3N(Cc3ccccc3)C12.[Br-] (stereo not drawn)"
assay_readout = "IC50"
unit_descriptor = "µM"
obs_value = 1.72

[[record]]
compound = "Cc1n(CC(=O)N2CCC3(C)c4ccccc4N(Cc4ccccc4)C23)cc[n+]1CC(=O)c1ccc2ccccc2c1 (stereo not drawn)"
assay_readout = "IC50"
unit_descriptor = "µM"
obs_value = 4.79

[[record]]
compound = "CC12CCN(C(=O)Cn3c[n+](CC(=O)c4ccc(Br)cc4)c4ccccc43)C1N(Cc1ccccc1)c1ccccc12 (stereo not drawn)"
assay_readout = "IC50"
unit_descriptor = "µM"
obs_value = 8.43

[[record]]
compound = "Cc1ccc(C[n+]2ccn(CC(=O)N3CCC4(C)c5ccccc5N(Cc5ccccc5)C34)c2C)cc1 (stereo not drawn)"
assay_readout = "IC50"
unit_descriptor = "µM"
obs_value = 19.5

[[record]]
compound = "COc1ccc(C(=O)C[n+]2c(C)n(CC(=O)N3CCC4(C)c5ccccc5N(Cc5ccccc5)C34)c3ccccc32)cc1 (stereo not drawn)"
assay_readout = "IC50"
unit_descriptor = "µM"
obs_value = 8.83

[[record]]
compound = "Cc1cc2c(cc1C)[n+](Cc1ccccc1Br)cn2CC(=O)N1CCC2(C)c3ccccc3N(C)C12 (stereo not drawn)"
assay_readout = "IC50"
unit_descriptor = "µM"
obs_value = 5.61


# IC50 of Cc1cc2c(cc1C)[n+](Cc1ccc(Br)cc1)cn2CC(=O)N1CCC2(C)c3ccccc3N(C)C12 (stereo not drawn) = 5.69

These entries and their values trace back to ChEMBL document CHEMBL3745696.
